Tested on: SW1353
protocol text: relative viability vs DMSO control (72 h) (fraction); higher = more viable cells
run conditions: 10 µM
relative viability under 0.7 gets Criterion met, anything at or over 0.7 gets Criterion not met.

compound structure string | class label
N#CCNC(=O)c1ccc(-c2ccnc(Nc3ccc(N4CCOCC4)cc3)n2)cc1 | Criterion met
COc1cc(Nc2ncc(F)c(Nc3ccc4c(n3)N(COP(=O)(O)O)C(=O)C(C)(C)O4)n2)cc(OC)c1OC | Criterion met
COC(=O)N[C@@H](C)CNc1nccc(-c2cn(C(C)C)nc2-c2cc(Cl)cc(NS(C)(=O)=O)c2F)n1 | Criterion not met
O=c1sn(-c2cccc3ccccc23)c(=O)n1Cc1ccccc1 | Criterion not met
COCCNc1cc(NC(=O)N2CCCc3cc(CN4CCN(C)CC4=O)c(C=O)nc32)ncc1C#N | Criterion not met

Given the entry CNC(=O)c1ccccc1Sc1ccc2c(/C=C/c3ccccn3)n[nH]c2c1 , would its reported relative viability be below 0.7?
Criterion met

Record CC1(C)CC=C(c2nc(C3CC(C)(C)OC(C)(C)C3)ccc2NC(=O)c2nc(C#N)c[nH]2)CC1 : is its relative viability strictly below 0.7?
Criterion not met

Lab note: relative viability threshold 0.7. Does this compound come in strictly under it? CCN1C(=O)N(c2c(F)c(OC)cc(OC)c2F)Cc2cnc3[nH]c(CN4CCOCC4)cc3c21
Criterion met

---

The entries below come with measured relative viability values attached.
System: SW982
protocol text: relative viability vs DMSO control (72 h) (fraction); higher = more viable cells
run conditions: 0.01372 µM
Number only, no unit.

molecule | target | parameter measured | number
CC#CC(=O)N1CCC[C@H]1c1nc(-c2ccc(C(=O)Nc3ccccn3)cc2)c2c(N)nccn12 [Acalabrutinib] | SW982 | relative viability | 1.05
COc1cc(Nc2ncc(F)c(Nc3ccc4c(n3)N(COP(=O)(O)O)C(=O)C(C)(C)O4)n2)cc(OC)c1OC [Fostamatinib] | SW982 | relative viability | 1.05
Cc1cc2c(F)c(Oc3ncnn4cc(OC[C@@H](C)O)c(C)c34)ccc2[nH]1 [Brivanib] | SW982 | relative viability | 1.05
Cn1ncnc1[C@H]1c2n[nH]c(=O)c3cc(F)cc(c23)N[C@@H]1c1ccc(F)cc1 [Talazoparib] | SW982 | relative viability | 0.785

Would you kindly look at the next entry?
Find the measured relative viability: item Cc1ccc(Nc2nccc(N(C)c3ccc4c(C)n(C)nc4c3)n2)cc1S(N)(=O)=O [Pazopanib] , target or system SW982.
1.05

---

Recorded measurements of relative viability, one per entry
Tested on: SK-LMS-1
protocol text: relative viability vs DMSO control (72 h) (fraction); higher = more viable cells
run conditions: 0.1235 µM
I only need the number, thanks.

Answered examples (3):
compound | relative viability
COC(=O)[C@@]1(O)C[C@H]2O[C@]1(C)n1c3ccccc3c3c4c(c5c6ccccc6n2c5c31)C(=O)NC4 [K-252a] | 0.664
O=C(Nc1ccc(OC(F)(F)Cl)cc1)c1cnc(N2CC[C@@H](O)C2)c(-c2cc[nH]n2)c1 | 1
CO[C@H]1C[C@@H]2CC[C@@H](C)[C@@](O)(O2)C(=O)C(=O)N2CCCC[C@H]2C(=O)O[C@H]([C@H](C)C[C@@H]2CC[C@@H](OCCO)[C@H](OC)C2)CC(=O)[C@H](C)/C=C(\C)[C@@H](O)[C@@H](OC)C(=O)[C@H](C)C[C@H](C)/C=C/C=C/C=C/1C | 0.549

Fill in: relative viability of CCC(=O)N1CC[C@H](Nc2ncnc3c2CN(c2cnc(OC)c(C(F)(F)F)c2)CC3)C1 is ___
1.06

Recorded relative viability for Cc1cccc(-c2nn3c(c2-c2ccnc4ccc(C(N)=O)cc24)CCC3)n1 , please?
1.01

For the compound shown here, COc1cc(OC)c(/C=C/S(=O)(=O)Cc2ccc(OC)c(NCC(=O)O)c2)c(OC)c1 , give the reported relative viability.
0.659

Need relative viability of Cc1ccc(Nc2nccc(N(C)c3ccc4c(C)n(C)nc4c3)n2)cc1S(N)(=O)=O , thanks.
0.973

---

relative viability reference
System: SW1353
protocol text: relative viability vs DMSO control (72 h) (fraction); higher = more viable cells
run conditions: 0.01372 µM
Answer as a number with no unit attached.

Here's what some known entries look like.
compound structure string | relative viability
COc1cc(OC)c(/C=C/S(=O)(=O)Cc2ccc(OC)c(NCC(=O)O)c2)c(OC)c1 | 0.992
Cc1cc2c(F)c(Oc3ncnn4cc(OC[C@@H](C)O)c(C)c34)ccc2[nH]1 | 0.976

Consider the additional compound presented here.
Which measured relative viability value corresponds to N#CC1(c2ccc(NC(=O)c3cccnc3NCc3ccncc3)cc2)CCCC1 ?
0.981

---

System: VA-ES-BJ
protocol text: relative viability vs DMSO control (72 h) (fraction); higher = more viable cells
run conditions: 0.04115 µM
parameter measured: relative viability
Form rule: numeric answer, no unit written next to it.

Here are 5 molecules together with their reported answers.
molecule | relative viability
CCN(CC)CCNC(=O)c1c(C)[nH]c(/C=C2\C(=O)Nc3ccc(F)cc32)c1C [Sunitinib] | 1.05
Cc1cc2cc(Oc3ccnc(Nc4cccc(CS(=O)(=O)NCCN(C)C)c4)n3)ccc2[nH]1 [Sulfatinib] | 1.02
CN1CC[C@@H](NC(=O)Nc2ccc(C#N)cc2)C[C@@H]1c1nc2ccccc2[nH]1 [Glasdegib] | 1.06
CC(C)Oc1ccc(-c2nn([C@@H](C)c3oc4ccc(F)cc4c(=O)c3-c3cccc(F)c3)c3ncnc(N)c23)cc1F [Umbralisib] | 1.05
O=C(Nc1nc2cccc(-c3ccc(CN4CCS(=O)(=O)CC4)cc3)n2n1)C1CC1 [Filgotinib] | 0.997

Could you tell me which relative viability is on file for CC(C)NC[C@@H](C(=O)N1CCN(c2ncnc3c2[C@H](C)C[C@H]3O)CC1)c1ccc(Cl)cc1 [Ipatasertib] ?
0.898

I have this molecule here, COC(=O)N[C@@H](C)CNc1nccc(-c2cn(C(C)C)nc2-c2cc(Cl)cc(NS(C)(=O)=O)c2F)n1 [Encorafenib] , and I need its recorded relative viability.
1.03

---

Entries and their relative viability
Test system: HT1080
protocol text: relative viability vs DMSO control (72 h) (fraction); higher = more viable cells
run conditions: 0.00457 µM
Lab note: jot the number down without any unit.

Some compounds with recorded relative viability:
compound structure string | number
CNC(=O)c1nnc(NC(=O)C2CC2)cc1Nc1cccc(-c2ncn(C)n2)c1OC | 1.03
CC1(COc2ccc3c(c2)ncn3-c2ccc3cccc(N4CCC(N)CC4)c3n2)COC1 | 1.03
CC#CC(=O)N1CCC[C@H]1c1nc(-c2ccc(C(=O)Nc3ccccn3)cc2)c2c(N)nccn12 | 1.04
CN1CC[C@@H](NC(=O)Nc2ccc(C#N)cc2)C[C@@H]1c1nc2ccccc2[nH]1 | 1.09
CCN(CC)CCNC(=O)c1c(C)[nH]c(/C=C2\C(=O)Nc3ccc(F)cc32)c1C | 1.06
C[C@H](Nc1ncnc2nc[nH]c12)c1cc2cccc(Cl)c2c(=O)n1-c1ccccc1 | 1.13
Clc1ccc(Nc2nnc(Cc3ccncc3)c3ccccc23)cc1 | 1.01

Give the measured relative viability of CCc1cnn2c(NCc3ccc[n+]([O-])c3)cc(N3CCCC[C@H]3CCO)nc12 .
1.09

---

System: MES-SA
protocol text: relative viability vs DMSO control (72 h) (fraction); higher = more viable cells
run conditions: 3.333 µM
Each item that follows carries a reported relative viability.

Known relative viability results, listed for orientation:
compound structure string | target | relative viability
CC#CC(=O)N1CCC[C@H]1c1nc(-c2ccc(C(=O)Nc3ccccn3)cc2)c2c(N)nccn12 | MES-SA | 0.914
CN1CC[C@@H](NC(=O)Nc2ccc(C#N)cc2)C[C@@H]1c1nc2ccccc2[nH]1 | MES-SA | 0.935
O=S(=O)(c1cccc2cnccc12)N1CCCNCC1 | MES-SA | 0.941
Cc1cc2c(F)c(Oc3ncnn4cc(OC[C@@H](C)O)c(C)c34)ccc2[nH]1 | MES-SA | 0.926

Reported relative viability, molecule Cc1cccc(-c2nn3c(c2-c2ccnc4ccc(C(N)=O)cc24)CCC3)n1 : ____
0.863

For the molecule shown here, CC(C)(O)CNc1nc(Nc2ccnc(C(F)(F)F)c2)nc(-c2cccc(C(F)(F)F)n2)n1 , give the reported relative viability.
0.918

Would you kindly share the measured relative viability for CCN(CC)CCNC(=O)c1c(C)[nH]c(/C=C2\C(=O)Nc3ccc(F)cc32)c1C ?
0.305

For the molecule Clc1ccc(Nc2nnc(Cc3ccncc3)c3ccccc23)cc1 , what relative viability is on record?
0.919

---

Tested on: RD-ES
protocol text: relative viability vs DMSO control (72 h) (fraction); higher = more viable cells
run conditions: 0.00051 µM
Entries and their measured relative viability follow.
Enter a number only.

compound | relative viability
Cn1cc(C2=C(c3cn(C4CCN(Cc5ccccn5)CC4)c4ccccc34)C(=O)NC2=O)c2ccccc21 | 0.997
O=C1NC(=O)[C@@H](c2cn3c4c(cccc24)CCC3)[C@@H]1c1c[nH]c2ccccc12 [Tivantinib] | 0.967
O=S(=O)(c1cccc2cnccc12)N1CCCNCC1 | 0.957
N#CCNC(=O)c1ccc(-c2ccnc(Nc3ccc(N4CCOCC4)cc3)n2)cc1 | 0.981
COC(=O)[C@@]1(O)C[C@H]2O[C@]1(C)n1c3ccccc3c3c4c(c5c6ccccc6n2c5c31)C(=O)NC4 [K-252a] | 1.02

Requested read-out: relative viability. Entry: CO[C@H]1C[C@@H]2CC[C@@H](C)[C@@](O)(O2)C(=O)C(=O)N2CCCC[C@H]2C(=O)O[C@H]([C@H](C)C[C@@H]2CC[C@@H](OCCO)[C@H](OC)C2)CC(=O)[C@H](C)/C=C(\C)[C@@H](O)[C@@H](OC)C(=O)[C@H](C)C[C@H](C)/C=C/C=C/C=C/1C
0.939

Fill in: relative viability of CN1CCN(c2ccc(C(=O)Nc3n[nH]c4ccc(Cc5cc(F)cc(F)c5)cc34)c(NC3CCOCC3)c2)CC1 is ___
1.02

Recorded relative viability for O=c1sn(-c2cccc3ccccc23)c(=O)n1Cc1ccccc1 , please?
1.03
